target: UniProt Q9NWM0
Sequence (Q9NWM0 whole entry): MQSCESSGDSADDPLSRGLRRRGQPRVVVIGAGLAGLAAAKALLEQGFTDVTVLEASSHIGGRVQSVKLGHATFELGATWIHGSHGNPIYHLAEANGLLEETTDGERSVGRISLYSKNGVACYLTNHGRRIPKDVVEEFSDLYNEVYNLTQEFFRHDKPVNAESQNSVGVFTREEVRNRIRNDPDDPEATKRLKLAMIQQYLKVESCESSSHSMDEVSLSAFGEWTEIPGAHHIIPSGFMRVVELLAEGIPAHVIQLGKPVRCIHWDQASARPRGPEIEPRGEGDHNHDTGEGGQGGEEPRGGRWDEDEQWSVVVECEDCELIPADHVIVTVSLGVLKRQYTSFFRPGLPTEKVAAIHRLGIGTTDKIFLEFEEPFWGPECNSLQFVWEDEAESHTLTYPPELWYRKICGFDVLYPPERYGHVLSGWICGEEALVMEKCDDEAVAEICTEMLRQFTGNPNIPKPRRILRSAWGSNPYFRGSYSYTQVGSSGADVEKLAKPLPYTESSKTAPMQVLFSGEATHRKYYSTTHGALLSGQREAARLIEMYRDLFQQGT
recorded_endpoint: IC50 (µM)
Number in µM, nothing else.

The recorded IC50 for Nc1n[nH]c(NCc2c(Cl)cccc2Oc2ccc(-c3ccccc3)cc2)n1 is 25.7
